B1: Transcription elongation factor A N-terminal and central domain-containing protein, residues 30 to 77; numbered along this chain, Q8N8B7 (parent)
chain: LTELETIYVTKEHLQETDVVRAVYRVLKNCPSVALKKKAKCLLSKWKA

variants of: B1; assay: abundance fitness (aPCA) (normalised: wild type 0, dead -1); higher = more abundant; growth selection in yeast, the domain comes from the species named; details: Homo sapiens
Each record gets a class by abundance fitness: bin 0 (below -0.6), bin 1 (-0.6 to below -0.2), bin 2 (-0.2 or more)

INSERT INTO results (sequenceentry, answerlabel) VALUES
  ('LTELETIYVTKEHLQETDVVRAVYRVLKNCPSVALKKKAKPLLSKWKA [C41P]', 'bin 0'),
  ('LTELETIYVTKEHLQETDVVRAVYRVLKNCPSVALKKKAKCLLSQWKA [K45Q]', 'bin 0'),
  ('LTELETIYVTAEHLQETDVVRAVYRVLKNCPSVALKKKAKCLLSKWKA [K11A]', 'bin 2'),
  ('LTELETIYVTKEHLQETDVVRGVYRVLKNCPSVALKKKAKCLLSKWKA [A22G]', 'bin 2'),
  ('LTRLETIYVTKEHLQETDVVRAVYRVLKNCPSVALKKKAKCLLSKWKA [E3R]', 'bin 1'),
  ('LTELETIYVTKEHLQETDVVRAVYRVLKQCPSVALKKKAKCLLSKWKA [N29Q]', 'bin 1'),
  ('LTELEIIYVTKEHLQETDVVRAVYRVLKNCPSVALKKKAKCLLSKWKA [T6I]', 'bin 0'),
  ('LTELETIYVTKEHLQETDVVRAVYRWLKNCPSVALKKKAKCLLSKWKA [V26W]', 'bin 2'),
  ('LTELETIYVGKEHLQETDVVRAVYRVLKNCPSVALKKKAKCLLSKWKA [T10G]', 'bin 2');
